Test system: SK-OV-3 ovarian
Assay: NCI tumour cell line growth inhibition, 48 h

{"Molecule": "Cc1nn(C)c(=O)c2nn(-c3ccccc3)c(C)c12", "TGI": "> 100 µM"}
{"Molecule": "Cc1ccsc1/C=N/Nc1ccccn1", "TGI": "> 100 µM"}
{"Molecule": "O=[N+]([O-])c1ccc2c(c1)S(=O)c1ccccc1-2 (stereo unspecified)", "TGI": "> 100 µM"}
{"Molecule": "CC(=O)OC1=C2C(CC3C4CC=C5CC(OC(C)=O)CCC5(C)C4CCC23C)C2C(=O)N(Cc3ccccc3)C(=O)C2C1 (stereo unspecified)", "TGI": "> 100 µM"}
{"Molecule": "Cc1nn(C(=O)c2ccc(Cl)cc2)c2c1C(c1ccco1)SC(N)=N2 (stereo unspecified)", "TGI": "> 10 µM"}
{"Molecule": "CCc1cc2c(oc3c4ccccc4ccc23)c(=O)[nH]1", "TGI": "> 10 µM"}
{"Molecule": "O=C1C=C(NCCc2cc(Br)c(O)c(Br)c2)C(=O)c2[nH]cnc21", "TGI": "> 100 µM"}
{"Molecule": "COc1ccc(N2C(=O)C3c4[nH]c5ccccc5c4C4CCC(C(C)(C)C)CC4C3C2=O)cc1OC (stereo unspecified)", "TGI": "45 µM"}
{"Molecule": "CN(C)CCNC(=O)c1cccc2c1nc(-c1ccccn1)c1ccccc12", "TGI": "37.3 µM"}
{"Molecule": "c1cn[nH]c1", "TGI": "> 10 µM"}
{"Molecule": "COC1=C(OC)C(=O)C(Cc2c(Cl)nc3n2CCS3)=C(C)C1=O", "TGI": "25.1 µM"}
{"Molecule": "COC1(OC)c2ccccc2C2(O)c3ccccc3C(=O)C12 (stereo unspecified)", "TGI": "> 100 µM"}
{"Molecule": "CC(C)(C)C(=O)OCC(COC(=O)C(C)(C)C)[N+](=O)[O-]", "TGI": "> 100 µM"}
{"Molecule": "CC(C)C[C@H](NC(=O)[C@H](CCc1ccccc1)NC(=O)c1ccc2ccccc2n1)B(O)O", "TGI": "10.2 µM"}
{"Molecule": "CC(=O)OC1C(O)C(C)OC(OC(=O)C2CCC3C(C2)OC2(CC(OC(=O)/C=C/c4ccccc4)C(C)CO2)C32CO2)C1OC1OC(C)C(O)C(O)C1O (stereo unspecified)", "TGI": "0.213 µM"}
{"Molecule": "Clc1ccc(-c2cn(-c3ccccc3)c(-c3ccccc3)n2)c(Cl)c1", "TGI": "> 35.7 µM"}
{"Molecule": "COc1cc2c3c(n(C)c(=O)c2cc1OC)-c1cc2c(cc1/C3=C\\[C@@H](N)CCCCN)OCO2", "TGI": "> 100 µM"}
{"Molecule": "CCOC(=O)C1(C(=O)OCC)CC=C(C)CC12C(=O)Nc1ccccc12 (stereo unspecified)", "TGI": "> 100 µM"}
{"Molecule": "COC(=O)c1ccccc1N=Cc1ccc(N(CCC#N)S(=O)(=O)c2ccccc2)cc1", "TGI": "> 100 µM"}
{"Molecule": "C=C1C(=O)O[C@H]2[C@H]1CC/C(COC(=O)C(=O)c1cn(C)c3ccc(OC)cc13)=C\\CC[C@@]1(C)O[C@@H]21", "TGI": "29.3 µM"}
{"Molecule": "CN1c2ccccc2C(C)(C)C12CC(c1ccc(Cl)c(S(=O)(=O)N3CCCC3)c1)=NO2 (stereo unspecified)", "TGI": "> 100 µM"}
